All figures here come from patent US8969053B2.

substrate: NC(=O)C1=CN([C@@H]2O[C@H](COP(=O)(O)OP(=O)(O)OC[C@H]3O[C@@H](n4cnc5c(N)ncnc54)[C@H](OP(=O)(O)O)[C@@H]3O)[C@@H](O)[C@H]2O)C=CC1; assay: purified protein, by the assay type; conditions: other: NADPH 6-300 μM, 10 mM methylglyoxal, pH 7.5, 37° C.
Experimental endpoint: Km (µM)
Just the number in µM, nothing appended.

// field: Km; key: E. coli YqhD variant YqhD*(G149E) (Escherichia coli K-12; G149E) (protein) MNNFNLHTPTRILFGKGAIAGLREQIPHDARVLITYGGGSVKKTGVLDQVLDALKGMDVLEFGGIEPNPAYETLMNAVKLVREQKVTFLLAVGGGSVLDGTKFIAAAANYPENIDPWHILQTGGKEIKSAIPMGCVLTLPATGSESNAEAVISRKTTGDKQAFHSAHVQPVFAVLDPVYTYTLPPRQVANGVVDAFVHTVEQYVTKPVDAKIQDRFAEGILLTLIEDGPKALKEPENYDVRANVMWAATQALNGLIGAGVPQDWATHMLGHELTAMHGLDHAQTLAIVLPALWNEKRDTKRAKLLQYAERVWNITEGSDDERIDAAIAATRNFFEQLGVPTHLSDYGLDGSSIPALLKKLEEHGMTQLGENHDITLDVSRRIYEAAR ; value = 28
